This collection of values is drawn from paper PMC11727334.

ASSAY_TARGET: Kdnase produced by A. fumigatus (AfK) (Aspergillus fumigatus, UniProt Q4WQS0)
Construct: AfK was expressed and purified as described by Telford et al; made in house
Sequence (Q4WQS0 21-406): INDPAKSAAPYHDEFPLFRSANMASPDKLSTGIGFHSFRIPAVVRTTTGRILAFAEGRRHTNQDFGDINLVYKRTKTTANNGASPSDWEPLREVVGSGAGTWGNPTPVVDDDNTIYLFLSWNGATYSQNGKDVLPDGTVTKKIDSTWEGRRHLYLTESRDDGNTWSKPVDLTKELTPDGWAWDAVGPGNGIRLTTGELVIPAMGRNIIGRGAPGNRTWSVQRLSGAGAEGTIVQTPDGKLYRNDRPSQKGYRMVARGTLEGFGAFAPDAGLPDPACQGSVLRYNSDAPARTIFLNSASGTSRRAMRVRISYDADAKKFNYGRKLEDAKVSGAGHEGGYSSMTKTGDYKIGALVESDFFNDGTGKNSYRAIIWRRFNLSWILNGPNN
PROTOCOL: Inhibition assay of recombinant AfK using 4MU-Kdn as substrate
Type: biochemical
pKi: −log10 of the molar value.
MEASURE: pKi

1) CC(C)(C)c1cc(C=C(C#N)C#N)cc(C(C)(C)C)c1O [compound 14, Tyrphostin A9, reference compound] = 4.23

* * *

ASSAY_TARGET: UniProt:Q0CMX0
Sequence (Q0CMX0 entry or part of it): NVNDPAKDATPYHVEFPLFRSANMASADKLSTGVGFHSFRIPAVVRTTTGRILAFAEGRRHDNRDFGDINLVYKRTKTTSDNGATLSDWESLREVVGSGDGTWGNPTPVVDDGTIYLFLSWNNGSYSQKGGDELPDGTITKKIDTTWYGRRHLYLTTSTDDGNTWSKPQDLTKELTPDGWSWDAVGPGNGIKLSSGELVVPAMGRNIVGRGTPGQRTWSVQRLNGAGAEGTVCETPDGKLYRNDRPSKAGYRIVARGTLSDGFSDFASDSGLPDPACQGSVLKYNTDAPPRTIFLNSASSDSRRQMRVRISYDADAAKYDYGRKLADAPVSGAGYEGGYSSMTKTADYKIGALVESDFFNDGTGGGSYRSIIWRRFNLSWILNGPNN
PROTOCOL: Inhibition assay of recombinant AtK using Kdn4MU as substrate
SETTINGS: Table 1; calculated Ki = IC50/(([S]/Km) + 1)
pKi: −log10 of the molar value.
MEASURE: pKi

1. O=C1NC[C@@]2(C(=O)O)CN(Cc3ccc(C4CCCCC4)s3)C[C@@H]12 = 4.41

* * *

ASSAY_TARGET: Trichophyton rubrum Kdnase (TrK) (Trichophyton rubrum)
Sequence (A0A178EUH2 entry or part of it): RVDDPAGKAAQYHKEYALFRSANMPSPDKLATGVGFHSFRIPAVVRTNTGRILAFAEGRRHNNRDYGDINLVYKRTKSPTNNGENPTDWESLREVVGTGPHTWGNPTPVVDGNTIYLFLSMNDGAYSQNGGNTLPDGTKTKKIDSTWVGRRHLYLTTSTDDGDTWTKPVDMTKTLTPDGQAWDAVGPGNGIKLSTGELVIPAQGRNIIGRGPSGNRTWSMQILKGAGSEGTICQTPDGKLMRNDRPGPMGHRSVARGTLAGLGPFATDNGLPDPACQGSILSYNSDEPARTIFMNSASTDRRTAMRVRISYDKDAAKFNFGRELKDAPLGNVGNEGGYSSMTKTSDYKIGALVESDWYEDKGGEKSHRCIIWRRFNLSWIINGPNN
PROTOCOL: Inhibition assay of recombinant TrK using Kdn4MU as substrate
Assay type: biochemical
pIC50: −log10 of the molar value.
MEASURE: pIC50

1) O=C(/C=C/c1ccc(O)c2c1[C@H](C(=O)O)[C@@H](c1ccc(O)c(O)c1)O2)O[C@H](Cc1ccc(O)c(O)c1)C(=O)O = 4.93

* * *

ASSAY_TARGET: Kdnase produced by A. fumigatus (AfK) (Aspergillus fumigatus, UniProt Q4WQS0)
Construct: AfK was expressed and purified as described by Telford et al; made in house
PROTOCOL: Inhibition assay of recombinant AfK using 4MU-Kdn as substrate
Format: biochemical
SETTINGS: Fig. S10; read-out: IC50
Experimental: We purchase fresh commercial material for compounds 13 and 14 and performed inhibition assays using recombinant AfK (Methods, Fig. S8, Supporting Information). We determined IC50 values in quadruplicate using 4MU-Kdn as the substrate ([Yeung et al. 2013]). […] Each 200 μM reaction mixture was incubated at rt for 2 min prior to the addition of purified sialidase. […] The kinetic parameters were determined from initial rate measurements using a substrate concentration of Km/4. […]
MEASURE: IC50

1. O=C(O)/C=C/c1ccc(O)c(O)c1 [caffeic acid, reference compound] = ~500 µM

* * *

ASSAY_TARGET: Kdnase produced by A. fumigatus (AfK) (Aspergillus fumigatus, UniProt Q4WQS0)
Construct: AfK was expressed and purified as described by Telford et al; made in house
PROTOCOL: Inhibition assay of recombinant AfK using 4MU-Kdn as substrate
Type: biochemical
SETTINGS: Table 1; calculated Ki = IC50/(([S]/Km) + 1); read-out: Ki
# Ki annotations
MEASURE: Ki (µM)

1. O=C1NC[C@@]2(C(=O)O)CN(Cc3ccc(C4CCCCC4)s3)C[C@@H]12 = 74.7
2. O=C(/C=C/c1ccc(O)c2c1[C@H](C(=O)O)[C@@H](c1ccc(O)c(O)c1)O2)O[C@H](Cc1ccc(O)c(O)c1)C(=O)O = 18.7

* * *

// endpoint IC50 / system neuraminidase MvNA (Micromonospora viridifaciens, UniProt Q02834)
MEASURE: IC50 (µM)

1) O=C(/C=C/c1ccc(O)c2c1[C@H](C(=O)O)[C@@H](c1ccc(O)c(O)c1)O2)O[C@H](Cc1ccc(O)c(O)c1)C(=O)O = 347
2) O=C1NC[C@@]2(C(=O)O)CN(Cc3ccc(C4CCCCC4)s3)C[C@@H]12 = 6.6
